System: HPAFII cells
Assay: In vitro cytotoxicity of Ag1 ADCs (CellTiter-Glo, 96 h)
Format: cell-based
Conditions: Tables 3a and 3b, in words
Experimental: In vitro cytotoxicity. The cytotoxicity of a tripeptide-based Antibody Drug Conjugate was measured by a cell proliferation assay employing the protocol described in Promega Corp. Technical Bulletin TB288; and Mendoza et al., 2002, Cancer Res. 62:5485-5488), the methods of which are specifically incorporated by reference herein. Briefly, an aliquot of 40 μl of cell culture containing about 400 cells in medium is deposited in each well of a 384-well, opaque-walled plate. […]
Numbered stars: 1 amine (or outer) side, 2 acyl side, 3 side chain; on linkers, the order of the positions; unused ones are H or OH. Square brackets hold non-standard residues; d marks the D form. Peptide text beside a SMILES is read from it. * marks the point of attachment. Dolaproine = CO[C@@H]([C@@H]1CCCN1)[C@@H](C)C(=O)O; Propanoyl(3-maleimido) = O=C1C=CC(=O)N1CCC(=O)*; Dil = CC[C@H](C)[C@H](NC)[C@@H](CC(=O)O)OC; Gla = N[C@@H](CC(C(=O)O)C(=O)O)C(=O)O; PABC = O=C(OCc1ccc(N[*:1])cc1)[*:2]; X1 = C[C@@H](N*)[C@@H](O)c1ccccc1; NMeV = CN[C@H](C(=O)O)C(C)C
outcome.measure: cytotoxicity relative to comparator dipeptide-based ADC (1)

>>> recorded_measurement("CC[C@H](C)[C@@H]([C@@H](CC(=O)N1CCC[C@H]1[C@H](OC)[C@@H](C)C(=O)N[C@H](C)[C@@H](O)c1ccccc1)OC)N(C)C(=O)[C@@H](NC(=O)[C@H](C(C)C)N(C)C(=O)OCc1ccc(NC(=O)[C@H](CCC(=O)O)NC(=O)[C@H](C)NC(=O)[C@@H](C)NC(=O)CCN2C(=O)C=CC2=O)cc1)C(C)C [Compound 22] ({Propanoyl(3-maleimido)}-[dA]AE[PABC][NMeV]V[Dil][Dolaproine]-X1)")
"less cytotoxic"
>>> recorded_measurement("CC[C@H](C)[C@@H]([C@@H](CC(=O)N1CCC[C@H]1[C@H](OC)[C@@H](C)C(=O)N[C@H](C)[C@@H](O)c1ccccc1)OC)N(C)C(=O)[C@@H](NC(=O)[C@H](C(C)C)N(C)C(=O)OCc1ccc(NC(=O)[C@H](CC(=O)O)NC(=O)[C@H](C)NC(=O)[C@@H](CC(C)C)NC(=O)CCN2C(=O)C=CC2=O)cc1)C(C)C [Compound 24] ({Propanoyl(3-maleimido)}-[dL]AD[PABC][NMeV]V[Dil][Dolaproine]-X1)")
"less cytotoxic"
>>> recorded_measurement("CC[C@H](C)[C@@H]([C@@H](CC(=O)N1CCC[C@H]1[C@H](OC)[C@@H](C)C(=O)N[C@H](C)[C@@H](O)c1ccccc1)OC)N(C)C(=O)[C@@H](NC(=O)[C@H](C(C)C)N(C)C(=O)OCc1ccc(NC(=O)[C@H](CC(C(=O)O)C(=O)O)NC(=O)[C@H](C)NC(=O)[C@@H](CC(C)C)NC(=O)CCN2C(=O)C=CC2=O)cc1)C(C)C [Compound 26] ({Propanoyl(3-maleimido)}-[dL]A[Gla][PABC][NMeV]V[Dil][Dolaproine]-X1)")
"less cytotoxic"

* * *

Test system: HPAFII cells
Assay: In vitro cytotoxicity of Ag1 ADCs (CellTiter-Glo, 96 h)
Assay type: cell-based
Conditions: Tables 3a and 3b, in words
Numbered stars: 1 amine (or outer) side, 2 acyl side, 3 side chain; on linkers, the order of the positions; unused ones are H or OH. Square brackets hold non-standard residues; d marks the D form. Peptide text beside a SMILES is read from it. * marks the point of attachment. Dolaproine = CO[C@@H]([C@@H]1CCCN1)[C@@H](C)C(=O)O; Propanoyl(3-maleimido) = O=C1C=CC(=O)N1CCC(=O)*; Dil = CC[C@H](C)[C@H](NC)[C@@H](CC(=O)O)OC; PABC = O=C(OCc1ccc(N[*:1])cc1)[*:2]; X1 = C[C@@H](N*)[C@@H](O)c1ccccc1; Cit = NC(=O)NCCC[C@H](N)C(=O)O; NMeV = CN[C@H](C(=O)O)C(C)C; Aib = CC(C)(N)C(=O)O
outcome.measure: cytotoxicity relative to comparator dipeptide-based ADC (1)

>>> recorded_measurement("CC[C@H](C)[C@@H]([C@@H](CC(=O)N1CCC[C@H]1[C@H](OC)[C@@H](C)C(=O)N[C@H](C)[C@@H](O)c1ccccc1)OC)N(C)C(=O)[C@@H](NC(=O)[C@H](C(C)C)N(C)C(=O)OCc1ccc(NC(=O)[C@H](CCCNC(N)=O)NC(=O)[C@H](C)NC(=O)[C@@H](CC(C)C)NC(=O)CCN2C(=O)C=CC2=O)cc1)C(C)C [Compound 8] ({Propanoyl(3-maleimido)}-[dL]A[Cit][PABC][NMeV]V[Dil][Dolaproine]-X1)")
"less cytotoxic"
>>> recorded_measurement("CC[C@H](C)[C@@H]([C@@H](CC(=O)N1CCC[C@H]1[C@H](OC)[C@@H](C)C(=O)N[C@H](C)[C@@H](O)c1ccccc1)OC)N(C)C(=O)[C@@H](NC(=O)[C@H](C(C)C)N(C)C(=O)OCc1ccc(NC(=O)[C@H](CCC(=O)O)NC(=O)[C@H](CO)NC(=O)[C@H](Cc2ccccc2)NC(=O)CCN2C(=O)C=CC2=O)cc1)C(C)C [Compound 30] ({Propanoyl(3-maleimido)}-FSE[PABC][NMeV]V[Dil][Dolaproine]-X1)")
"less cytotoxic"
>>> recorded_measurement("CC[C@H](C)[C@@H]([C@@H](CC(=O)N1CCC[C@H]1[C@H](OC)[C@@H](C)C(=O)N[C@H](C)[C@@H](O)c1ccccc1)OC)N(C)C(=O)[C@@H](NC(=O)[C@H](C(C)C)N(C)C(=O)OCc1ccc(NC(=O)[C@H](CCC(=O)O)NC(=O)C(C)(C)NC(=O)[C@@H](CC(C)C)NC(=O)CCN2C(=O)C=CC2=O)cc1)C(C)C [compound 38] ({Propanoyl(3-maleimido)}-[dL][Aib]E[PABC][NMeV]V[Dil][Dolaproine]-X1)")
"less cytotoxic"

Origin of the recorded values: patent US20240366779A1
